tested on: HIV; experiment: Anti-HIV activity in HIV-infected human peripheral blood lymphocytes (supernatant viral RNA and p24 core protein); assay type: cell-based; conditions: Human immunodeficiency virus 1, Lymphocyte, 96 h; supernatant viral core protein p24; at four days; read-out: ED50, concentration of drug giving 50% inhibition of production of p24 core protein
quantity: EC50

Kindly state the measured EC50 obtained for `CC1=C[C@H]2[C@@]3(O)[C@H](C)[C@@H](OC(=O)Cc4ccc(F)cc4F)[C@]4(OC(=O)Cc5ccc(F)cc5F)[C@H]([C@@H]3C=C(CCl)C[C@]2(O)C1=O)C4(C)C` with HIV.
< 0.1 nM

====

Catalogue of pEC50 readings, one per entry.
system: HIV; assay: Anti-HIV activity in HIV-infected human peripheral blood lymphocytes (supernatant viral RNA and p24 core protein); format: cell-based; details: Human immunodeficiency virus 1, Lymphocyte; from dose-response curves or by estimation from one or more experimental drug concentrations; read-out: anti-HIV ED50 for RNA
Give only the number. pEC50 is defined as minus log10 of concentration in molar units.

A selection of reference data follows.
CC1=C[C@H]2[C@@]3(O)[C@H](C)[C@@H](OC(=O)Cc4ccc(F)cc4F)[C@]4(OC(=O)Cc5ccc(F)cc5F)[C@H]([C@@H]3C=C(C=NO)C[C@]2(O)C1=O)C4(C)C
5.26
CC1=C[C@H]2[C@@]3(O)[C@H](C)[C@@H](OC(=O)Cc4ccc(F)cc4F)[C@]4(OC(=O)Cc5ccc(F)cc5F)[C@H]([C@@H]3C=C(CSCCC(=O)O)C[C@]2(O)C1=O)C4(C)C
5.35
CC(C)[C@H]1C(=O)N[C@H](CSCCO)Cc2c[nH]c3cccc(c23)N1C
6.00

Given the compound CC1=C[C@H]2[C@@]3(O)[C@H](C)[C@@H](OC(=O)Cc4ccc(F)cc4F)[C@]4(OC(=O)Cc5ccc(F)cc5F)[C@H]([C@@H]3C=C(C[S+]([O-])CCO)C[C@]2(O)C1=O)C4(C)C (stereo partly drawn) , what is its reported pEC50?
5.80

Ok, now `CCCCCCCCCCCCCC(=O)O[C@@H]1[C@@H](C)[C@@]2(O)[C@@H](C=C(CC#N)C[C@]3(O)C(=O)C(C)=C[C@@H]23)[C@@H]2C(C)(C)[C@]12OC(C)=O`
5.82

Ok, now `CC1=C[C@H]2[C@@]3(O)[C@H](C)[C@@H](OC(=O)Cc4c(F)c(F)c(F)c(F)c4F)[C@]4(OC(=O)Cc5c(F)c(F)c(F)c(F)c5F)[C@H]([C@@H]3C=C(CF)C[C@]2(O)C1=O)C4(C)C`
9.00

Ok, now `CC1=C[C@H]2[C@@]3(O)[C@H](C)[C@@H](OC(=O)Cc4ccc(F)cc4F)[C@]4(OC(=O)Cc5ccc(F)cc5F)[C@H]([C@@H]3C=C(C=NO)C[C@]2(O)C1=NO)C4(C)C`
7.35

Ok, now `CCCCCCCCCCCCCC(=O)O[C@@H]1[C@@H](C)[C@@]2(O)[C@@H](C=C(COC(=O)Nc3ccc(F)c([N+](=O)[O-])c3)C[C@]3(O)C(=O)C(C)=C[C@@H]23)[C@@H]2C(C)(C)[C@]12OC(C)=O`
5.40

====

system: HIV; test: Anti-HIV activity in HIV-infected human peripheral blood lymphocytes (supernatant viral RNA and p24 core protein); format: cell-based; conditions: Human immunodeficiency virus 1, Lymphocyte; from dose-response curves or by estimation from one or more experimental drug concentrations; read-out: anti-HIV ED50 for RNA
Catalogue of EC50 readings, one per entry.
Provide the reading as a plain figure in µM.

CCCCCCCCCCCCCC(=O)O[C@@H]1[C@@H](C)[C@@]2(O)[C@@H](C=C(C[S+]([O-])CCO)C[C@]3(O)C(=O)C(C)=C[C@@H]23)[C@@H]2C(C)(C)[C@]12OC(C)=O (stereo partly drawn)
1.1

Given the molecule `CC1=C[C@H]2[C@@]3(O)[C@H](C)[C@@H](OC(=O)Cc4ccc(F)cc4F)[C@]4(OC(=O)Cc5ccc(F)cc5F)[C@H]([C@@H]3C=C(CNc3cccc(CO)c3)C[C@]2(O)C1=O)C4(C)C` , what is its reported EC50?
0.18

====

test system: HIV; test: Anti-HIV activity in HIV-infected human peripheral blood lymphocytes (supernatant viral RNA and p24 core protein); format: cell-based; details: Human immunodeficiency virus 1, Lymphocyte; from dose-response curves or by estimation from one or more experimental drug concentrations; read-out: anti-HIV ED50 for RNA
quantity: pEC50
Give only the number. pEC50 is defined as minus log10 of concentration in molar units.

A selection of reference data follows.
CC1=C[C@H]2[C@@]3(O)[C@H](C)[C@@H](OC(=O)Cc4ccc(F)cc4F)[C@]4(OC(=O)Cc5ccc(F)cc5F)[C@H]([C@@H]3C=C(CSCC(O)CO)C[C@]2(O)C1=O)C4(C)C (stereo partly shown)
5.52
CC1=C[C@H]2[C@@]3(O)[C@H](C)[C@@H](OC(=O)Cc4ccc(F)cc4F)[C@]4(OC(=O)Cc5ccc(F)cc5F)[C@H]([C@@H]3C=C(CSCCO)C[C@]2(O)C1=O)C4(C)C
6.00
CC1=C[C@H]2[C@@]3(O)[C@H](C)[C@@H](OC(=O)Cc4ccc(F)cc4F)[C@]4(OC(=O)Cc5ccc(F)cc5F)[C@H]([C@@H]3C=C(CSCCS)C[C@]2(O)C1=O)C4(C)C
7.30

Could you now consider this next compound?
Given the compound O=C1CCCCCCCCCCCCCCCCCCC(=O)OC(CSCCO)CO1 (stereo not shown) , what is its reported pEC50?
8.00
